- Experiment Notes: Urinary concentrations of NNI compounds in wild raccoons
- Assay type: in vivo, raccoon, Procyon lotor
- Assay Setup: raccoon urine, volume‐adjusted, n = 59
Test Readout: Percentile 75th urinary concentration

Below, each entry is followed by its recorded Percentile 75th urinary concentration result.
• CN/C(=N\[N+](=O)[O-])NCc1cnc(Cl)s1 [Clothianidin, clothianidin] = 0.45 µg/L
• N#C/N=C1\SCCN1Cc1ccc(Cl)nc1 [Thiacloprid, thiacloprid] = <PQL
• CCN(Cc1ccc(Cl)nc1)/C(=C/[N+](=O)[O-])NC [Nitenpyram, nitenpyram] = <PQL
• O=[N+]([O-])NC1=NCCN1Cc1ccc(Cl)nc1 [Imidacloprid, imidacloprid] = <PQL
• C/C(=N\C#N)N(C)Cc1ccc(Cl)nc1 [Acetamiprid, acetamiprid] = 0.23 µg/L

Please report Percentile 75th urinary concentration for every entry that follows.
1. C/C(=N\C#N)NCc1ccc(Cl)nc1 [N‐dm‐acetamiprid, N‐desmethyl‐acetamiprid]
2. CN/C(=N/CC1CCOC1)N[N+](=O)[O-] (centres unmarked) [Dinotefuran, dinotefuran]
3. CN1COCN(Cc2cnc(Cl)s2)/C1=N\[N+](=O)[O-] [Thiamethoxam, thiamethoxam]

1: 0.22 µg/L; 2: <PQL; 3: <PQL

----------
- Experiment Notes: Urinary concentrations of NNI compounds in wild raccoons
- Assay type: in vivo, raccoon, Procyon lotor
- Assay Setup: raccoon urine, volume‐adjusted, n = 59
Test Readout: Percentile 100th urinary concentration (µg/L)
Answers are plain numbers, in µg/L.

• O=[N+]([O-])NC1=NCCN1Cc1ccc(Cl)nc1 = 1.45
• CN1COCN(Cc2cnc(Cl)s2)/C1=N\[N+](=O)[O-] = 7.30
• CN/C(=N/CC1CCOC1)N[N+](=O)[O-] (centres unmarked) = 5.67
• C/C(=N\C#N)N(C)Cc1ccc(Cl)nc1 = 1.29

Please report Percentile 100th urinary concentration for every entry that follows.
1. CN/C(=N\[N+](=O)[O-])NCc1cnc(Cl)s1
2. N#C/N=C1\SCCN1Cc1ccc(Cl)nc1
3. C/C(=N\C#N)NCc1ccc(Cl)nc1

4.33
0.32
71.28

----------
- Experiment Notes: Urinary concentrations of NNI compounds in wild raccoons
- Format: in vivo, raccoon, Procyon lotor
- Assay Setup: raccoon urine, volume‐adjusted, n = 59
Please provide measured GM ± SD urinary concentration for the entries that follow.
State the result as a value with its unit after it.

- CN/C(=N\[N+](=O)[O-])NCc1cnc(Cl)s1: 0.17 ± 0.89 µg/L
- C/C(=N\C#N)NCc1ccc(Cl)nc1: 0.11 ± 9.33 µg/L

Kindly note the recorded GM ± SD urinary concentration for O=[N+]([O-])NC1=NCCN1Cc1ccc(Cl)nc1 , which is 0.06 ± 0.20 µg/L
